Tested on: SKBr3
Experimental Details: Cytotoxicity against SKBr3 breast cancer cells
Type: cell-based
Measurement Context: Homo sapiens, SK-BR-3, first value of cell
Measured Quantity: pIC50
// pIC50 here means minus log10 of the molar concentration (mol/L)

{"Compound": "O=C(CON=C1/C=C/CC/C=C/CCOC(=O)c2c(O)cc(O)c(Cl)c2C1)NCCO [13h]", "pIC50": 5.12}
{"Compound": "O=C(CON=C1/C=C/CC/C=C/CCOC(=O)c2c(O)cc(O)c(Cl)c2C1)NCc1ccccc1 [13j]", "pIC50": 5.46}
{"Compound": "O=C(CON=C1/C=C/CC/C=C/CCOC(=O)c2c(O)cc(O)c(Cl)c2C1)NC1CCCCC1 [13k]", "pIC50": 6.26}

Could you now consider this next compound?
Can you look up the measured pIC50 of O=C1OCC/C=C/CC/C=C/C(=N/OCC(=O)N2CCCCC2)Cc2c(Cl)c(O)cc(O)c21 [13a] for me?
6.90
